# Lookup of reported IC50 keyed by entry
Target: T1, human Protein S (UniProt P07225 42-676)
T1 chain: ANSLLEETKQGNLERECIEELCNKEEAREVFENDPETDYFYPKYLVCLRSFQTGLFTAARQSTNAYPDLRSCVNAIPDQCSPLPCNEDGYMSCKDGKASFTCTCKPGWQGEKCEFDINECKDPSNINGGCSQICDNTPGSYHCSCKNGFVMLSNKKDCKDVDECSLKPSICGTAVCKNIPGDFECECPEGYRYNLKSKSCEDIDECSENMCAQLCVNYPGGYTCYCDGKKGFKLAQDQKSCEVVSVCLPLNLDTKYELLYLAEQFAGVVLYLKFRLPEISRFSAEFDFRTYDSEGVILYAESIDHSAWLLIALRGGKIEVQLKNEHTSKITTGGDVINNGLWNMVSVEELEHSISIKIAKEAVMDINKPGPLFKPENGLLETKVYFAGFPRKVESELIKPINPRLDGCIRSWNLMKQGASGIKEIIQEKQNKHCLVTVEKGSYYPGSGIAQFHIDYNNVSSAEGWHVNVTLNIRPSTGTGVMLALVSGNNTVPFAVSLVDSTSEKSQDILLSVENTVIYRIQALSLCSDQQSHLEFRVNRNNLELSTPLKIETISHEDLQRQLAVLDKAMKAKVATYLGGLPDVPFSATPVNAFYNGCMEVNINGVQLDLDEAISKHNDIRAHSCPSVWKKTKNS
Assay: LANCE competition
Positions of bridges follow the written chain, without caps; N, C: chain ends.
Just the number in nM, nothing appended.

Illustrative cases are given below, each with its answer.
>>> numeric_result("Ac-TCLVSAGWYDYNFDCYREFT-NH2 (disulfide 2-15 (inferred); not fully specified) [JBS3173]")
208
>>> numeric_result("Ac-TGLVSAGWYDYNFDHYREFTC-NH2 (not fully specified (residue 21); also: tetramer: four peptides on a 40 kD four-arm PEG core) [JBS3179]")
8

Kindly consider the entry below.
In plain terms, Ac-EYYVSAGWYDYNTDKYYEFI-NH2 [JBS3237] has a documented IC50 of 1.5

The values you see were collected from patent US20150246947A1.
